Catalogue of Preemergence herbicidal rating GALAP values
System: GALAP (Galium)
Assay: Preemergence herbicidal evaluation
Format: in vivo, Galium aparine
Details: rate 0.1250 kg/ha; rated 4-5 weeks after treatment; rating scale 0-9
Source text: Results of herbicide evaluation are expressed on a rating scale (0-9). The scale is based upon a visual observation of plant stand, vigor, malformation, size, chlorosis and overall plant appearance as compared with a control. […] The compounds evaluated are reported by compound number given in Example 37.

Reference set, count: 4
- smiles.notation: "Cn1c(C(F)(F)F)cc(=O)n(-c2cc(N=C3SCC(=O)N3Cc3ccccc3Cl)c(Cl)cc2F)c1=O"
  reported.property: "Preemergence herbicidal rating GALAP"
  value.reported: 1.0
- smiles.notation: "Cc1cccc(CN2C(=O)CSC2=Nc2cc(-n3c(=O)cc(C(F)(F)F)n(C)c3=O)c(F)cc2Cl)c1"
  reported.property: "Preemergence herbicidal rating GALAP"
  value.reported: 2.0
- smiles.notation: "Cn1c(C(F)(F)F)cc(=O)n(-c2cc(N=C3SCC(=O)N3Cc3ccc(Cl)cc3)c(Cl)cc2F)c1=O"
  reported.property: "Preemergence herbicidal rating GALAP"
  value.reported: 1.0
- smiles.notation: "Cc1ccc(CN2C(=O)CSC2=Nc2cc(-n3c(=O)cc(C(F)(F)F)n(C)c3=O)c(F)cc2Cl)cc1C"
  reported.property: "Preemergence herbicidal rating GALAP"
  value.reported: 1.0

Consider the record given below.
Exam item: Request the reported Preemergence herbicidal rating GALAP associated with `Cn1c(C(F)(F)F)cc(=O)n(-c2cc(N=C3SCC(=O)N3Cc3ccc(S(N)(=O)=O)cc3)c(Cl)cc2F)c1=O`
Marked response: 0.0
